Target: Muscarinic acetylcholine receptor (Rattus norvegicus) (UniProt P08482+P08483+P08485+P08911+P10980)
Test: It is the ratio of IC50 (QNB) to that of IC50 (OXO-M)
Assay type: protein assay
Known Ratio of a selection of compounds
I only need the number, thanks.

Some compounds with known Ratio results, for comparison:
Cc1nnc(C23CCN(CC2)C3)o1 ... 380
Cc1nc(C23CCCN(CC2)C3)no1 (stereo not drawn) ... 16
Cc1nnc([C@@H]2CN3CC[C@@H]2C3)o1 ... 240
Cc1nc(C2CN3CCC2CC3)no1 (stereo not drawn) ... 10
COC(=O)[C@@H]1C[N@@]2CCC[C@@H]1C2 ... 46

Prompt line: Quick one: Ratio for Cc1nnc(C2CN3CCC2CC3)o1 (stereo not drawn) ?
Response line: 20

Prompt line: Also check COC(=O)C12CCN(CC1)C2
Response line: 650

Prompt line: What do you get for Cc1nnc(C23CCCN(CC2)C3)o1 (stereo not drawn) ?
Response line: 220

###

Target: Muscarinic acetylcholine receptor (Rattus norvegicus) (UniProt P08482+P08483+P08485+P08911+P10980)
Assay: Relative binding of QNB and OXO-M to muscarininc receptors (ratio of IC50)
Assay type: protein assay
Please respond with yes (1) when measured Ratio is strictly beneath 200, and with no (0) in all other cases.

COC(=O)[C@@H]1C[C@H]2CCCN(C2)C1 ... yes (1)
COC(=O)C12CCCN(CC1)C2 (configuration not stated) ... no (0)
COC(=O)[C@@H]1CN2CC[C@@H]1C2 ... no (0)
Cc1noc(C2CN3CCC2CC3)n1 (configuration not stated) ... yes (1)

Prompt line: Given COC(=O)[C@@H]1C[C@H]2CCN(C2)C1 , is recorded Ratio strictly lower than 200?
Response line: yes (1)

Prompt line: Similarly, Cc1noc(C23CCN(CC2)C3)n1 ?
Response line: yes (1)

Prompt line: Let us now turn to Cc1nc([C@@H]2CN3CC[C@@H]2C3)no1
Response line: no (0)

###

Ratio values for the molecules below.
Biological target: Muscarinic acetylcholine receptor (Rattus norvegicus) (UniProt P08482+P08483+P08485+P08911+P10980)
Assay: Relative binding of QNB and OXO-M to muscarininc receptors (ratio of IC50)
Assay type: protein assay

COC(=O)C1CN2CCC1CC2 (stereo not given) ... 49
Cc1noc([C@@H]2CN3CC[C@@H]2C3)n1 ... 360
Cc1noc([C@@H]2CN3CCC[C@@H]2C3)n1 ... 55
Cc1noc([C@@H]2C[C@H]3CCN(C3)C2)n1 ... 84

Prompt line: Bench note: what Ratio did Cc1noc([C@@H]2C[C@H]3CCCN(C3)C2)n1 show?
Response line: 7
